Examples of binders with documented pKd follow.
- MEASUREMENT_TARGET: T1, APP-Avi-soluble cynomolgus monkey LOX-1 (61-273) (cynomolgus monkey, biotinylated at the Avi tag when immobilised in the SET assay)
- T1 construct: Expressed and purified in the same way as the human protein; also called cynomolgus monkey soluble LOX-1; Cynomolgus Monkey Soluble APP-Avi-LOX-1
- T1 sequence (chain, as listed by the source): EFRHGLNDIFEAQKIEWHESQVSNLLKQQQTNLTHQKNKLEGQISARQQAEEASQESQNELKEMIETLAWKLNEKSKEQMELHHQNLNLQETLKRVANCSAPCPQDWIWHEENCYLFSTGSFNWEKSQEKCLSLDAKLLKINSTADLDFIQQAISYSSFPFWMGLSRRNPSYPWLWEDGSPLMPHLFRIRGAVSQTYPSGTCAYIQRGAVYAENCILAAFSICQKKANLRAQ
- EXPERIMENTAL_PROTOCOL: SPR Biacore T200, antibody captured by anti-human IgG, cynomolgus soluble LOX-1 as analyte, 1:1 model
pKd: −log10 of the molar value.
VALUE_TYPE: pKd

INSERT INTO results (binder, value_type, assay_value) VALUES
  ('FF3 (antibody, human IgG1, kappa, L234A L235A, V domains shown, Humaneered variant of E2E10, tested as full human IgG; Biotinylated for the neutrophil assay; also called LLG785; LLG785 (FF3)) VH: QVQLVQSGAEVKKPGASVKVSCKASGYTFTDYEVHWVRQAPGQGLEWMGAIHPGSGGAAYVQKFQGRVTMTRDTSISTAYMELSRLRSDDTAVYYCARWLPMDYWGQGTLVTVSS VL: DIQMTQSPSSVSASVGDRVTITCRASQGINNWLVWYQQKPGKAPKLLIYAASSLQSGVPSRFSGSGSGADYTLTISSLQPEDFATYYCQQYLITPYTFGQGTKLEIKR', 'pKd', 10.64),
  ('FF5 (antibody, human IgG1, kappa, L234A L235A, V domains shown, Humaneered variant of E2E10, tested as full human IgG; Biotinylated for the neutrophil assay; also called LLG787; LLG787 (FF5)) VH: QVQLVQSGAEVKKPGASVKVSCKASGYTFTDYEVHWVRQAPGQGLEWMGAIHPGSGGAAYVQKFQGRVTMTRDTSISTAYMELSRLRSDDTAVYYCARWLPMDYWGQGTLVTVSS VL: DIQMTQSPSSVSASVGDRVTITCRASQGINNWLVWYQQKPGKAPKLLLYAASRLESGVPSRFSGSGSGTDYTLTISSLQPEDIATYYCQQYLITPYTFGQGTKLEIKR', 'pKd', 10.46),
  ('FF4 (antibody, human IgG1, kappa, L234A L235A, V domains shown, Humaneered variant of E2E10, tested as full human IgG; the text and claims pair heavy chain 56 with light chain 66; Biotinylated for the neutrophil assay; also called LLG786; LLG786 (FF4)) VH: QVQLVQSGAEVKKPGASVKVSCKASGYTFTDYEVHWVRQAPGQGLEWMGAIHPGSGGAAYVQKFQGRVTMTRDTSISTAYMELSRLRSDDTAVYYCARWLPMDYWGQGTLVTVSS VL: DIQMTQSPSSVSASVGDRVTITCRASQGITNWLAWYQQKPGKAPKLLIYAASILESGVPSRFSGSGSGTDYTLTISSLQPEDIATYYCQQYLITPYTFGQGTKLEIKR', 'pKd', 12.00);
